test system: methicillin-resistant Staphylococcus aureus (MRSA); experiment: Determination of MIC values (BHI broth, 96 well microtiter plate); assay type: cell-based; conditions: Staphylococcus aureus, MRSA; BHI broth, overnight 37° C.; read-out: MIC MRSA
Examples of compounds with documented MIC follow.

Some entries whose results are on file:
{"COMPOUND": "Cn1cc(-c2ccc3cc(Cl)ccc3n2)c2cc(OCc3ccccc3)ccc21", "MIC": "< 25 µg/mL"}
{"COMPOUND": "Cc1ccc2c(c1)c(-c1ccc3cc(Cl)ccc3n1)cn2C", "MIC": "< 25 µg/mL"}
{"COMPOUND": "N#Cc1ccc2[nH]cc(-c3cc(Cl)c4ccccc4n3)c2c1", "MIC": "> 25 µg/mL"}
{"COMPOUND": "Clc1cc(-c2c[nH]c3ccc(Br)cc23)nc2ccccc12", "MIC": "< 7 µg/mL"}
{"COMPOUND": "NCc1ccc(CNC(=O)c2cc(-c3c[nH]c4ccc(Br)cc34)nc3ccc(C#CCN4CCc5ccccc5C4)cc23)cc1", "MIC": "< 7 µg/mL"}
{"COMPOUND": "NCC1CCC(CNC(=O)c2cc(-c3c[nH]c4ccc(Br)cc34)nc3c(F)cccc23)CC1 (centres unmarked)", "MIC": "< 7 µg/mL"}

Request: # return recorded MIC for entry Fc1ccc2c(-c3ccc4cc(Cl)ccc4n3)c[nH]c2c1
Response: < 7 µg/mL

Request: # return recorded MIC for entry NCc1ccc(CNC(=O)c2cc(-c3c[nH]c4ccc(Br)cc34)c3ccccc3n2)cc1
Response: < 7 µg/mL

* * *

test system: Streptococcus pneumoniae; assay: Determination of MIC values (BHI broth, 96 well microtiter plate); format: cell-based; settings: Streptococcus pneumoniae; S. pneu; BHI broth, overnight 37° C.; read-out: MIC S. pneu
ASSAY_READOUT: MIC

Some entries whose results are on file:
{"MOLECULE": "Cn1cc(-c2ccc3cc(Cl)ccc3n2)c2ccc(Cl)cc21 [Example 219]", "MIC": "< 25 µg/mL"}
{"MOLECULE": "Cn1cc(-c2cc(C(=O)NCc3cccc(CN)c3)c3cc(I)ccc3n2)c2cc(Cl)ccc21 [Example 225]", "MIC": "< 7 µg/mL"}
{"MOLECULE": "Cn1cc(-c2cc(C(=O)NCCN)c3cc(C#CCNCCc4ccccc4)ccc3n2)c2cc(Br)ccc21 [Example 399]", "MIC": "< 7 µg/mL"}
{"MOLECULE": "Cn1cc(-c2ccc3cc(Cl)ccc3n2)c2cc(C#N)ccc21 [Example 218]", "MIC": "> 25 µg/mL"}

Request: # return recorded MIC for entry Cn1cc(-c2cc(C(=O)NCCN)c3ccc(I)cc3n2)c2cc(Br)ccc21 [Example 329]
Response: < 7 µg/mL

* * *

Examples of compounds with documented MIC follow.
system: Streptococcus pneumoniae; assay: Determination of MIC values (BHI broth, 96 well microtiter plate); assay type: cell-based; conditions: Streptococcus pneumoniae; S. pneu; BHI broth, overnight 37° C.; read-out: MIC S. pneu

{"COMPOUND": "Clc1ccc2nc(-c3c[nH]c4c(Cl)cccc34)ccc2c1 [Example 354]", "VAL": "> 25 µg/mL"}
{"COMPOUND": "Cn1cc(-c2cc(C(=O)NCc3ccc(CN)cc3)c3ccc(I)cc3n2)c2cc(Br)ccc21 [Example 328]", "VAL": "< 7 µg/mL"}
{"COMPOUND": "Cc1[nH]c2ccc(Cl)cc2c1-c1ccc2cc(Cl)ccc2n1 [Example 384]", "VAL": "< 7 µg/mL"}
{"COMPOUND": "NCCNC(=O)c1cc(-c2c[nH]c3ccc(Br)cc23)nc2ccc(Cl)cc12 [Example 286]", "VAL": "< 7 µg/mL"}

Proceeding to the next compound to report its MIC.
Request: # return recorded MIC for entry O=C(O)c1cc(-c2c[nH]c3ccc(Br)cc23)nc2ccc(C#CCN3CCCC3)cc12 [Example 234]
Response: > 25 µg/mL

These data points were gathered from patent US6376670B1.
